Values compiled from PubChem BioAssay.

# assay_procedure: COS7 lysate on small-molecule microarray, probe aHis, 635 nm (AID 1123);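 further: z-score combines 667nm fluorescence intensity with signal-to-noise per printed compound spot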
# conditions: COS7 cell lysate, fluorescence, higher = more signal
Could you please classify the records by composite z-score using these ranges: bucket 1: < 0.4; bucket 2: ≥ 0.4 and < 2; bucket 3: ≥ 2

[
  {
    "molecule": "C=CCC(OC(C)=O)[C@@H]1[C@@H](N(Cc2cccc3ccccc23)C(=O)c2ccc(C)cc2)c2cc(OCCCO)ccc2N1C(=O)c1ccc(-c2ccccc2)cc1 (stereo partly drawn)",
    "cat": "bucket 1"
  },
  {
    "molecule": "[N-]=[N+]=NCc1ccccc1[C@H]1OC(c2ccc(OCCCO)cc2)=N[C@@]1(Cc1ccccc1N=[N+]=[N-])C(=O)NCc1ccccc1",
    "cat": "bucket 2"
  }
]

Pick a category. Item: CO[C@H]1COC(=O)[C@@H](OCc2ccccc2)C=C[C@H](C)[C@@H](OC)COC(=O)[C@H](OCc2ccccc2)C=C[C@@H]1C
bucket 1

Band for the recorded composite z-score of C=CC[C@@]1(C(=O)NCC(O)CO)N=C(c2ccc(OCCCO)cc2)O[C@@H]1c1ccccc1CN=[N+]=[N-] (stereo partly drawn) ?
bucket 3

Just checking, what class would you give COCCOC(=O)N1C(=O)[C@@]2(c3cc(C#CCC(C(=O)OC)C(=O)OC)ccc31)[C@H](c1ccccc1OCCO)N1[C@H](c3ccccc3)[C@H](c3ccccc3)OC(=O)[C@H]1[C@@H]2C(=O)N1CCCCCCC1 here?
bucket 3

Textbook exercise: identify the category of the molecule given here, O=C(NCc1ccccc1)c1ccc(Br)cc1[N+](=O)[O-] , according to its measured value.
bucket 1

Each molecule maps to one class by composite z-score. Which class for CC(C)NC(=O)[C@@]1(Cc2ccccc2I)c2ccccc2C(=O)N(C2CCCCC2)[C@H]1c1ccc(CO)cc1 ?
bucket 3

Any idea which band CN1CCC(CCCO)=CC1C1CC1 (stereo not drawn) is in?
bucket 1
